# ASSAY EXPLANATION: in vitro
# CONDITION SUMMARY: human, hela cells, % viability
Field: label. Allowed values: Y (viability at 28.5 h, 10 µM < 90%) or N (viability at 28.5 h, 10 µM >= 90%).

{"columns": ["MOLECULE", "CLASS LABEL"],
 "data": [
  ["O=C(NCCc1cccs1)N1CCC2(CC1)OCCc1c2[nH]c2ccccc12", "Y"]
]}

Continue with the molecule presented below.
Request: Hi there! Is viability at 28.5 h, 10 µM for "CC(C)(C)c1nsc(NC2CCCCCC2)n1" below 90%, do you know?
Response: N
